- Tested on: HCT-116 colon
- Test Protocol: NCI-60 one-dose screen, 48 h (100 = growth as untreated, 0 = no growth, -100 = all killed)
- Experimental Parameters: 10 µM unless noted
This is part of a sample that, as a whole, favours compounds with a hit. Of some 83,000 tested, about 20% had one in any assay.
# reported growth; entries follow

Compound: CCCCCCCC(=O)SCC/C=C/[C@@H]1CC(=O)NCc2cccc(n2)CN(Cc2ccc3ccccc3c2)CC(=O)N[C@@H](C(C)C)C(=O)O1
Measured Target: HCT-116 colon
Result Unit: %
growth: 5.36
//
Compound: OCC1OC(n2cnc3c(Cl)ncnc32)CC1O (stereo unspecified)
Measured Target: HCT-116 colon
Result Unit: %
growth: 94.1
//
Compound: COc1cnc2c(c1)C(=O)c1c-2n(CCCNCCN2CCOCC2)c(=O)c2cc([N+](=O)[O-])ccc12
Measured Target: HCT-116 colon
Result Unit: %
growth: -60.4
//
Compound: COc1ccc2c(c1)C(Br)=C(CCO)C2c1ccccc1 (stereo unspecified)
Measured Target: HCT-116 colon
Result Unit: %
growth: 57.3
//
Compound: Clc1cc(Cl)cc(Nc2ccc3c(OCCCN4CCOCC4)cccc3n2)c1
Measured Target: HCT-116 colon
Result Unit: %
growth: 27.5
//
Compound: O=C1C=Cc2ncccc2C1=O
Measured Target: HCT-116 colon
Result Unit: %
growth: 27.1
//
Compound: N#Cc1c(-c2ccco2)nc2c(c(-c3ccccc3)nn2-c2ccccc2)c1-c1ccc(O)cc1
Measured Target: HCT-116 colon
Result Unit: %
growth: 36.9
//
Compound: COc1cccc(-c2nn(-c3ccccc3)cc2-c2ccnc(NCCNS(=O)(=O)c3ccc(C(F)(F)F)cc3)c2)c1
Measured Target: HCT-116 colon
Result Unit: %
growth: 14.7
//
Compound: O=C1c2ccccc2NC(c2cn(-c3ccccc3)nc2-c2cccs2)N1Cc1ccccc1 (stereo unspecified)
Measured Target: HCT-116 colon
Result Unit: %
growth: 65.9
//
Compound: COC(=O)[C@]12CC[C@@H](C)[C@H](C)[C@@H]1C1=CC[C@@H]3[C@@]4(C)C[C@@H](OC(C)=O)[C@H](O)[C@@](C)(COC(C)=O)[C@@H]4[C@H](O)C[C@@]3(C)[C@]1(C)CC2
Measured Target: HCT-116 colon
Result Unit: %
growth: -69.5
//
Compound: O=C(O[C@@H]1Cc2c(O)cc(O)cc2O[C@@H]1c1cc(O)c(O)c(O)c1)c1cc(O)c2c(c1)OCO2
Measured Target: HCT-116 colon
Result Unit: %
growth: 86.3
//
Compound: CCN1CCN(C(=O)[C@@]2(C)CC[C@]3(C)CC[C@]4(C)C(=CC(=O)[C@@H]5[C@@]6(C)CC[C@H](OC7C[C@@H](O)[C@@H](O)C(C)O7)C(C)(C)[C@@H]6CC[C@]54C)[C@@H]3C2)CC1 (stereo partly specified)
Measured Target: HCT-116 colon
Result Unit: %
growth: 1.7
//
Compound: O=C1C(=O)N(CCCCn2cc(-c3ccccc3)nn2)c2ccccc21
Measured Target: HCT-116 colon
Result Unit: %
growth: 101
//
Compound: COc1ccc2c(c1)C/C(=C\c1cc(-c3cc(OC)c(OC)c(OC)c3)n[nH]1)C2=O
Measured Target: HCT-116 colon
Result Unit: %
growth: 81.9
//
Compound: Nc1nc2c(c(=O)[nH]1)C(c1ccc3c(c1)OCO3)C=C(C(=O)O)N2 (stereo unspecified)
Measured Target: HCT-116 colon
Result Unit: %
growth: 99.4
//
Compound: Cc1ccc(-c2nc3ccc(Cl)cc3c(=O)n2N2C(=O)CSC2c2ccccc2Cl)cc1 (stereo unspecified)
Measured Target: HCT-116 colon
Result Unit: %
growth: 53.1
//
Compound: Cn1c(=O)c2c(ncn2CC(=O)Nc2ccc(S(N)(=O)=O)cc2)n(C)c1=O
Measured Target: HCT-116 colon
Result Unit: %
growth: 92.7
//
Compound: c1ccc(C2Cc3ccccc3C2=NC2CCCCC2)cc1 (stereo unspecified)
Measured Target: HCT-116 colon
Result Unit: %
growth: 96.9
//
Compound: Clc1ccc(Cn2cc(-c3nc4ccc(Br)nc4n3Cc3ccc(Cl)cc3)c3cccnc32)cc1
Measured Target: HCT-116 colon
Result Unit: %
growth: 84.1
//
Compound: CC(C)(C)c1ccc(OCCCCCCCN2CCNCC2)cc1
Measured Target: HCT-116 colon
Result Unit: %
growth: -1.04
//
Compound: Cn1nc(-c2ccccc2)c2c(-c3ccccc3)onc2c1=O
Measured Target: HCT-116 colon
Result Unit: %
growth: 42.5
//
Compound: CN(C)CCCC1(c2ccc(F)cc2)OCc2cc(-c3ccc(C(F)(F)F)nc3)ccc21 (stereo unspecified)
Measured Target: HCT-116 colon
Result Unit: %
growth: 58.4
//
Compound: O=C(NO)c1ccc(Cn2c(=O)n(CCc3ccc(O)cc3)c(=O)c3ccccc32)cc1
Measured Target: HCT-116 colon
Result Unit: %
growth: 24.9
//
Compound: C#CCC(C)(O)/C=C/C1=C(C)CCCC1(C)C (stereo unspecified)
Measured Target: HCT-116 colon
Result Unit: %
growth: 82.6
//
Compound: C/C(Cc1ccc(Cl)cc1)=C(/c1ccc(Cl)cc1)c1ccc(OCCN2CCCC2)cc1
Measured Target: HCT-116 colon
Result Unit: %
growth: 30.7
//
Compound: COc1cc2nc(Cl)nc(Nc3cccc(C(=O)/C=C/c4ccc(Cl)cc4)c3)c2cc1OC
Measured Target: HCT-116 colon
Result Unit: %
growth: -0.905
//
Compound: COC(=O)[C@]12CC[C@@H](C)[C@H](C)[C@@H]1C1=CC[C@@H]3[C@@]4(C)C[C@@H](O)[C@H](O)[C@@](C)(CO)C4=CC[C@@]3(C)[C@]1(C)CC2
Measured Target: HCT-116 colon
Result Unit: %
growth: -37.5
//
Compound: COC(=O)[C@]12CC[C@@H](C)[C@H](C)[C@@H]1C1=CC[C@@H]3[C@@]4(C)C(c5ncon5)=C[C@@](C)(CO)C4=CC[C@@]3(C)[C@]1(C)CC2
Measured Target: HCT-116 colon
Result Unit: %
growth: -83.1
//
Compound: Nc1c2c(nc3ccc(Cl)cc13)CC(c1ccccc1)CC2=O (stereo unspecified)
Measured Target: HCT-116 colon
Result Unit: %
growth: 20.3
//
Compound: Cn1cc(-c2csc(-c3c[nH]c4ccc(F)cc34)n2)c2cccnc21
Measured Target: HCT-116 colon
Result Unit: %
growth: 23.1
//
Compound: C[C@H]1[C@H]2C3=CC[C@@H]4[C@@]5(C)C/C(=C/c6ccco6)C(=O)C(C)(C)[C@@H]5CC[C@@]4(C)[C@]3(C)CC[C@@]2(C(=O)N2CCOCC2)CC[C@@H]1C
Measured Target: HCT-116 colon
Result Unit: %
growth: 26.9
//
Compound: Cc1cc(Cl)nc(N(CCCNc2ccnc3cc(Cl)ccc23)Cc2ccco2)n1
Measured Target: HCT-116 colon
Result Unit: %
growth: 3.68
//
Compound: N=c1ccc2nc3c(cc(N)c4ccccc43)oc-2c1
Measured Target: HCT-116 colon
Result Unit: %
growth: -96.1
//
Compound: COC(=O)CNc1nc(N(C)O)nc(N(C)O)n1
Measured Target: HCT-116 colon
Result Unit: %
growth: 13.8
//
Compound: O=c1[nH]ncc(Br)c1Br
Measured Target: HCT-116 colon
Result Unit: %
growth: 15.2
//
Compound: COc1c(N)c2c(c([N+](=O)[O-])c1OC)C(=O)OC2
Measured Target: HCT-116 colon
Result Unit: %
growth: 102
